- system: Polyunsaturated fatty acid lipoxygenase ALOX15B (Homo sapiens) (UniProt O15296)
- Sequence (whole entry): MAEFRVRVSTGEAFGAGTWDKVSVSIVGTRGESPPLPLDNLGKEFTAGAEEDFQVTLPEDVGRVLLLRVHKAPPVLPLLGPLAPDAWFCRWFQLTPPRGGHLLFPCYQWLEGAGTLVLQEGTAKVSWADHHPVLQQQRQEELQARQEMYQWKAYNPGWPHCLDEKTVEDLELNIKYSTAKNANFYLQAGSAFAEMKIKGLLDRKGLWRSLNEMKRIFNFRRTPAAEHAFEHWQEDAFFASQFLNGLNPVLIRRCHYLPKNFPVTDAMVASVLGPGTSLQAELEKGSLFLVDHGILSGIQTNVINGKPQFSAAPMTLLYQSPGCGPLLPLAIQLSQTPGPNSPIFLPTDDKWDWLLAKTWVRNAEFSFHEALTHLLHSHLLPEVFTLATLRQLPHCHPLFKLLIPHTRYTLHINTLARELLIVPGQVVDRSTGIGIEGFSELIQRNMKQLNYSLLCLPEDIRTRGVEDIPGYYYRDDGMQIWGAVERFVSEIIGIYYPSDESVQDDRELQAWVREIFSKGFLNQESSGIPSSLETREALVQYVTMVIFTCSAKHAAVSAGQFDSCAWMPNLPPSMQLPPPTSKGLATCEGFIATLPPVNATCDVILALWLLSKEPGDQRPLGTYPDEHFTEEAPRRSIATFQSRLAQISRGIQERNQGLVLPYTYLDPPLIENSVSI
- test-name: Inhibition of human recombinant 15-lipoxygenase over-expressed in CHO cells at 10 uM
- Format: cell-based
measured-attribute: inhibition

Prompt line: Look up inhibition for this molecule: `COc1ccc(-c2[nH]c(-c3ccccc3)nc2CCNS(=O)(=O)N(C)[C@@H]2CCN(Cc3ccccc3)C2)cc1`
Response line: 70%

---

- system: Polyunsaturated fatty acid lipoxygenase ALOX15 (Oryctolagus cuniculus, UniProt P12530)
- Sequence (P12530 whole entry): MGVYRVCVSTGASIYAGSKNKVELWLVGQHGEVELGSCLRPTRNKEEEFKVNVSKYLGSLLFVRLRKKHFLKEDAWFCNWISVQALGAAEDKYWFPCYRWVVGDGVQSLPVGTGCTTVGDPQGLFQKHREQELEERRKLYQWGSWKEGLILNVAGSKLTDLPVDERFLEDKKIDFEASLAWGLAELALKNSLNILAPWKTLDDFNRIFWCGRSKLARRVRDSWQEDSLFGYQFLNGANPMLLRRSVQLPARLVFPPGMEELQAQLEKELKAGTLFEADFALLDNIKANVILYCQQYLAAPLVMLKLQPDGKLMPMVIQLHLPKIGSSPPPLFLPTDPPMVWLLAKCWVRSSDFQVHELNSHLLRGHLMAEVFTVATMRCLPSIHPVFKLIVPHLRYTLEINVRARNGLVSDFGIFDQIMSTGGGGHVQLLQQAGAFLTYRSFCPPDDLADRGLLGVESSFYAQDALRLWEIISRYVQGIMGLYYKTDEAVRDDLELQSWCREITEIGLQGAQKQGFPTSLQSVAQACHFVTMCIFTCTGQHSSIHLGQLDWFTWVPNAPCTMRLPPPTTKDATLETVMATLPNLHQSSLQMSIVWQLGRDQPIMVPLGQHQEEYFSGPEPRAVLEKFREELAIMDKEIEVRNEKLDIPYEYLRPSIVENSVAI
- test-name: Inhibition of rabbit 15-lipoxygenase in presence of arachidonic acid
pIC50 reference
Worth noting: pIC50 values are minus log10 of concentrations stated in mol/L.

Example cases with answers are listed next.
>>> observed_value("COc1ccc(-c2[nH]c(-c3ccccc3)nc2CCNS(=O)(=O)N2CCN(c3ccccc3)CC2)cc1")
5.46
>>> observed_value("COc1ccc(-c2[nH]c(-c3ccccc3)nc2CCNS(=O)(=O)N(C)[C@@H]2CCN(Cc3ccccc3)C2)cc1")
6.73
>>> observed_value("COc1ccc(-c2[nH]c(-c3cccs3)nc2CCNS(=O)(=O)N2CCN(c3ccc(Cl)c(Cl)c3)CC2)cc1")
6.88

Prompt line: Look up pIC50 for this compound: `COc1ccc(-c2[nH]c(-c3ccccc3)nc2CCNS(=O)(=O)N(C)[C@H]2CCN(Cc3ccccc3)C2)cc1`
Response line: 7.09

Prompt line: Same thing, different compound: `CCCCCc1ccc(S(=O)(=O)NCCc2nc(-c3ccccn3)[nH]c2-c2ccc(OC)cc2)cc1`
Response line: 5.27

Prompt line: Same thing, different compound: `CCCCCN1CCN(S(=O)(=O)NCCc2nc(-c3cccs3)[nH]c2-c2ccc(OC)cc2)CC1`
Response line: 6.19

Prompt line: Same thing, different compound: `CCCCCc1ccc(S(=O)(=O)NCCc2nc(-c3cccc([N+](=O)[O-])c3)[nH]c2-c2ccc(OC)cc2)cc1`
Response line: 5.96

Prompt line: Same thing, different compound: `COc1ccc(-c2[nH]c(-c3cccs3)nc2CCNS(=O)(=O)N(C)[C@@H]2CCN(Cc3ccc(Cl)c(Cl)c3)C2)cc1`
Response line: 7.08

Prompt line: Same thing, different compound: `COc1ccc(-c2[nH]c(-c3ccccc3)nc2CCNS(=O)(=O)N[C@@H]2CCN(Cc3ccccc3)C2)cc1`
Response line: 6.14

Prompt line: Same thing, different compound: `CCCCCc1ccc(S(=O)(=O)NCCCc2nc(-c3ccccc3)[nH]c2-c2ccc(OC)cc2)cc1`
Response line: 6.04
